# Assay Summary: Antiproliferative activity against human EAhy926 cells measured after 48 hrs by MTT assay
# Assay type: functional, cell-based
# Condition Parameters: EA.hy 926, 48 h
Rule for this label: yes means IC50 is less than 8 µM; no means IC50 is at least 8 µM.

- Compound Structure: "CCCCn1c2ccccc2c2ccnc(CNCCCNCc3nccc4c5ccccc5n(CCCC)c34)c21"
  Answer Label: "no"
- Compound Structure: "CCCCn1c2ccccc2c2ccnc(CNCCCCNCc3nccc4c5ccccc5n(CCCC)c34)c21"
  Answer Label: "yes"
- Compound Structure: "COc1ccc(/C=C\\c2cc(OC)c(OC)c(OC)c2)cc1OP(=O)(O)O"
  Answer Label: "yes"
- Compound Structure: "c1ccc(CCCn2c3ccccc3c3ccnc(CNCCCCCCNCc4nccc5c6ccccc6n(CCCc6ccccc6)c45)c32)cc1"
  Answer Label: "yes"
- Compound Structure: "Cl.c1ccc2c(c1)[nH]c1c(CNCCCCNCc3nccc4c3[nH]c3ccccc34)nccc12"
  Answer Label: "no"
- Compound Structure: "Cn1c2ccccc2c2ccnc(CNCCCCNCc3nccc4c5ccccc5n(C)c34)c21"
  Answer Label: "no"
- Compound Structure: "CCCCn1c2ccccc2c2ccnc(CNCCCCCCNCc3nccc4c5ccccc5n(CCCC)c34)c21"
  Answer Label: "yes"
- Compound Structure: "Fc1ccc(Cn2c3ccccc3c3ccnc(CNCCCCNCc4nccc5c6ccccc6n(Cc6ccc(F)cc6)c45)c32)cc1"
  Answer Label: "yes"
- Compound Structure: "c1ccc2c(c1)[nH]c1c(CNCCCCCNCc3nccc4c3[nH]c3ccccc34)nccc12"
  Answer Label: "no"
- Compound Structure: "Fc1ccc(Cn2c3ccccc3c3ccnc(CNCCCNCc4nccc5c6ccccc6n(Cc6ccc(F)cc6)c45)c32)cc1"
  Answer Label: "no"
